Target: CLR/RAMP2 receptor (UniProt Q16602 23-461; O60895 43-175, limits assumed)
Sequence (Q16602 23-461 limits assumed, chain 1 of 2): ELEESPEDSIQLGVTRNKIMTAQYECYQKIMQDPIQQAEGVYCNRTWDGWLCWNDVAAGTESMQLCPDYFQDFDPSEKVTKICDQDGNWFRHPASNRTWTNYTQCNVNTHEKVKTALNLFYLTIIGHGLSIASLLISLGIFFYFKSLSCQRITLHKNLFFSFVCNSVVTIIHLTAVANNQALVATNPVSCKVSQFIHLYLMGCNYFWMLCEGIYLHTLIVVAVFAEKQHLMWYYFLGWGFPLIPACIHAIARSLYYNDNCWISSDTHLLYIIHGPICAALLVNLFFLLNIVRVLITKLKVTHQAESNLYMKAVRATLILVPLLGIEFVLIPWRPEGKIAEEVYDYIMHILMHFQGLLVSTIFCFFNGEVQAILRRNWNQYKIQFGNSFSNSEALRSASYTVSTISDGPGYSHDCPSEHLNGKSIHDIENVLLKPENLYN
Sequence (O60895 43-175 limits assumed, chain 2 of 2): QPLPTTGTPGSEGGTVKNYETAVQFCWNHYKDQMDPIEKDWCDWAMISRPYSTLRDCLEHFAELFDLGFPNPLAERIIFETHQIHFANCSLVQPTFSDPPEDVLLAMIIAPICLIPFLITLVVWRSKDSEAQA
Experiment: cell-based or functional assay
*: point of attachment. Palmitoyl = CCCCCCCCCCCCCCCC(=O)*
Recorded IC50 (nM), ADM-stimulated CLR/RAMP2 arrestin assay by entry
Give your result in nM as a bare value.

For the binder Palmitoyl-KVQKLAHQIYQFTDKDVAPRSKISPQGY-NH2 [SEQ ID NO: 119] , what IC50 (nM), ADM-stimulated CLR/RAMP2 arrestin assay is on record?
0.6

Entry under review: Palmitoyl-KVQKLAHQIYQFTDKDSAPVDPSSPHSY-NH2 [SEQ ID NO: 121] . Reported IC50 (nM), ADM-stimulated CLR/RAMP2 arrestin assay?
4.9

For Palmitoyl-KVQKLAHQIYQFTDKSAPVDPSSPHSY-NH2 [SEQ ID NO: 125] , what is its reported IC50 (nM), ADM-stimulated CLR/RAMP2 arrestin assay?
7.1

What value of measured IC50 (nM), ADM-stimulated CLR/RAMP2 arrestin assay is listed for Ac-TVQKLAHRLWQLMGPDKDNVAPRSKISPQGY-NH2 [SEQ ID NO: 116] ?
7.3

Find the recorded IC50 (nM), ADM-stimulated CLR/RAMP2 arrestin assay belonging to Palmitoyl-KVQKLAHQIYSAPVDPSSPHSY-NH2 [SEQ ID NO: 122] and report it.
61

Please look up its IC50 (nM), ADM-stimulated CLR/RAMP2 arrestin assay: Ac-VTHRLAGLLSRFTDKDKDNVAPRSKISPQGY-NH2 [SEQ ID NO: 115]
117
